# STUDY SYSTEM: WEE1 (Homo sapiens, UniProt P30291)
# Construct: purchased Thermo Fisher PR7373A
# Sequence (P30291 whole entry): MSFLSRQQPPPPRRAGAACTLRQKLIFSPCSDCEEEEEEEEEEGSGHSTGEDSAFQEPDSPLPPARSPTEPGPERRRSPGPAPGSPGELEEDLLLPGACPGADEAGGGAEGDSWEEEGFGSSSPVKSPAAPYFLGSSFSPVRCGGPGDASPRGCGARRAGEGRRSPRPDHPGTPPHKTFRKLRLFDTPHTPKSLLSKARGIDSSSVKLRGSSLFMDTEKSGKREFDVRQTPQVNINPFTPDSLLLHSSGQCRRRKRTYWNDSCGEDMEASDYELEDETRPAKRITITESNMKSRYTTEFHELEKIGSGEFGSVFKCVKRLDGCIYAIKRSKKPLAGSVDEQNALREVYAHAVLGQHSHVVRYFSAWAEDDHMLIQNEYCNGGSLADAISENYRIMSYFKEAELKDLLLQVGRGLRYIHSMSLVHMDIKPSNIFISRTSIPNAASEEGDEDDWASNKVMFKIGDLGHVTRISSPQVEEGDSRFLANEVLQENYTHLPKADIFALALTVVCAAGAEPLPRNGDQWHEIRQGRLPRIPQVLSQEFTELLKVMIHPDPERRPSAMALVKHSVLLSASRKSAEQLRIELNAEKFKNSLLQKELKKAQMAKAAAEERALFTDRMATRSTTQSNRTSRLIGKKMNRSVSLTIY
# EXPERIMENTAL DETAILS: Selectivity versus WEE1 assay (ADP-Glo enzymatic assay)
# Assay type: biochemical
# ASSAY SETUP: fold difference in selectivity for PKMYT1 over WEE1; banded; ">N" = at least in this band but could be higher
Structures can show the parent of a compound that is named as a salt.
READOUT KIND: PKMYT1 vs. WEE1 selectivity

Answered cases to consult:
COMPOUND: Cc1nnc(Nc2ncc(C(=O)Nc3c(C)ccc(O)c3C)s2)o1
READOUT KIND: PKMYT1 vs. WEE1 selectivity
VALUE OBSERVED: W (10-<100 fold)
--
COMPOUND: Cc1ccc(O)c(C)c1NC(=O)c1cnc(Nc2cccc(N3CCC(NC(=O)OC(C)(C)C)CC3)n2)s1
READOUT KIND: PKMYT1 vs. WEE1 selectivity
VALUE OBSERVED: X (100-<1000 fold)
--
COMPOUND: Cc1ccc(O)c(C)c1NC(=O)c1cnc(Nc2ccn(CC(=O)NCCN(C)C)n2)s1 [BAA-160, (hydrochloride)]
READOUT KIND: PKMYT1 vs. WEE1 selectivity
VALUE OBSERVED: X (100-<1000 fold)
--
COMPOUND: Cc1ccc(O)c(C)c1NC(=O)c1cnc(Nc2ccn(CC(=O)N3CCN(C4CC4)CC3)n2)s1
READOUT KIND: PKMYT1 vs. WEE1 selectivity
VALUE OBSERVED: Y (1000-5000 fold)

stdin: Tell me PKMYT1 vs. WEE1 selectivity of Cc1ccc(O)c(C)c1NC(=O)c1cnc(Nc2nccc(-c3ccc(Cl)cc3)n2)s1 when tested on WEE1 (Homo sapiens, UniProt P30291).
stdout: Y (1000-5000 fold)

stdin: Tell me PKMYT1 vs. WEE1 selectivity of Cc1ccc(O)c(C)c1NC(=O)c1cnc(Nc2ccnn2C)s1 when tested on WEE1 (Homo sapiens, UniProt P30291).
stdout: Y (1000-5000 fold)

stdin: Tell me PKMYT1 vs. WEE1 selectivity of Cc1ccc(O)c(C)c1NC(=O)c1cnc(Nc2ccn(CC(=O)N3CCN(S(C)(=O)=O)CC3)n2)s1 when tested on WEE1 (Homo sapiens, UniProt P30291).
stdout: X (100-<1000 fold)

stdin: Tell me PKMYT1 vs. WEE1 selectivity of Cc1ccc(O)c(C)c1NC(=O)c1cnc(Nc2ccnn2CCN)s1 when tested on WEE1 (Homo sapiens, UniProt P30291).
stdout: W (10-<100 fold)

stdin: Tell me PKMYT1 vs. WEE1 selectivity of CCNc1ncc(C(=O)Nc2c(C)ccc(O)c2C)s1 when tested on WEE1 (Homo sapiens, UniProt P30291).
stdout: >X (100-<1000 fold)

stdin: Tell me PKMYT1 vs. WEE1 selectivity of Cc1ccc(O)c(C)c1NC(=O)c1cnc(Nc2cc(C(F)(F)F)nc(NCCC(C)(C)C)n2)s1 when tested on WEE1 (Homo sapiens, UniProt P30291).
stdout: X (100-<1000 fold)

stdin: Tell me PKMYT1 vs. WEE1 selectivity of Cc1ccc(O)c(C)c1NC(=O)c1cnc(Nc2ccn([C@@H]3CCN(C(=O)COc4ccccc4)C3)n2)s1 when tested on WEE1 (Homo sapiens, UniProt P30291).
stdout: >X (100-<1000 fold)

stdin: Tell me PKMYT1 vs. WEE1 selectivity of Cc1ccc(O)c(C)c1NC(=O)c1cnc(Nc2ccn(CC(=O)N3CCC(O)CC3)n2)s1 when tested on WEE1 (Homo sapiens, UniProt P30291).
stdout: Y (1000-5000 fold)

stdin: Tell me PKMYT1 vs. WEE1 selectivity of Cc1ccc(O)c(C)c1NC(=O)c1cnc(Nc2ccc(S(C)(=O)=O)cc2)s1 when tested on WEE1 (Homo sapiens, UniProt P30291).
stdout: X (100-<1000 fold)

stdin: Tell me PKMYT1 vs. WEE1 selectivity of Cc1ccc(O)c(C)c1NC(=O)c1cnc(NCc2ccccn2)s1 when tested on WEE1 (Homo sapiens, UniProt P30291).
stdout: X (100-<1000 fold)

stdin: Tell me PKMYT1 vs. WEE1 selectivity of Cc1ccc(O)c(C)c1NC(=O)c1cnc(Nc2ccon2)s1 when tested on WEE1 (Homo sapiens, UniProt P30291).
stdout: X (100-<1000 fold)

stdin: Tell me PKMYT1 vs. WEE1 selectivity of Cc1ccc(O)c(C)c1NC(=O)c1cnc(Nc2ccn(CC(=O)N3CCC(C)(O)CC3)n2)s1 when tested on WEE1 (Homo sapiens, UniProt P30291).
stdout: Y (1000-5000 fold)
